Assay: in vivo
Settings: male, Sprague-Dawley, rat, iv, 1 mg/kg
recorded endpoint: AUC(0-t) at 8 h (µg·h/mL)
State just the number; it will be interpreted in µg·h/mL.

In plain terms, COc1cc(F)ccc1-c1cc(Nc2cc(CS(C)(=N)=O)ccn2)ncc1F (stereo unspecified) [ENITOCICLIB] has a documented AUC(0-t) at 8 h of 1.19

---

Test: in vivo
Settings: male, Sprague-Dawley, rat, iv, 1 mg/kg
recorded endpoint: half-life at 8 h (h)
State just the number; it will be interpreted in h.

In plain terms, COc1cc(F)ccc1-c1cc(Nc2cc(CS(C)(=N)=O)ccn2)ncc1F (stereo unspecified) has a documented half-life at 8 h of 1.1

---

Test: in vivo
Conditions: male, Sprague-Dawley, rat, iv, 1 mg/kg
recorded endpoint: Vd at 8 h
Answer format reminder: number followed by unit.

In plain terms, COc1cc(F)ccc1-c1cc(Nc2cc(CS(C)(=N)=O)ccn2)ncc1F (stereo unspecified) has a documented Vd at 8 h of 1.11 L/kg
